All values here come from ChEMBL document CHEMBL1153383.

Overview of recorded Activity for various compounds
- target-under-test: Adenosine receptor A3 (Homo sapiens)
- assay-remarks: Increase in efficacy of stimulation of [35S]GTPgammaS binding to human adenosine A3 receptor expressed in CHO cells at 10 uM by liquid scintillation counting relative to C1-IB-MECA
- Type: functional, cell-based
Field format: number, assumed %, no unit text.

Look over these answered cases.
q: Consider the compound Clc1cccc(Nc2nc3ccccc3c3[nH]c(C4CCCCC4)nc23)c1 and give its recorded Activity.
a: 200

q: Consider the compound c1cncc(Nc2nc3ccccc3c3[nH]c(C4CCCCC4)nc23)c1 and give its recorded Activity.
a: 119

q: Consider the compound Fc1ccc(Nc2nc3ccccc3c3[nH]c(C4CCCCC4)nc23)cc1F and give its recorded Activity.
a: 197

q: Consider the compound Clc1ccc(Nc2nc3ccccc3c3[nH]c(C4CCCCC4)nc23)c(Cl)c1 and give its recorded Activity.
a: 187

Next compound, Activity to be filled in.
q: Consider the compound N#Cc1ccc(Nc2nc3ccccc3c3nc(C4CCCCC4)[nH]c23)cc1C#N and give its recorded Activity.
a: 138

* * *

- target-under-test: Adenosine receptor A2a (Homo sapiens)
- assay-remarks: Displacement of [3H]CGS21680 from human recombinant adenosine A2A receptor expressed in HEK293 cells at 10 uM
- Format: cell-based
attribute-measured: Activity (%)
Field format: number, assumed %, no unit text.

Look over these answered cases.
q: Consider the compound Clc1ccc(Nc2nc3ccccc3c3nc(C4CCCCC4)[nH]c23)cc1Cl and give its recorded Activity.
a: -11.2

q: Consider the compound Clc1ccc(Nc2nc3ccccc3c3[nH]c([C@H]4C[C@H]5CC[C@H]4C5)nc23)cc1Cl and give its recorded Activity.
a: 39.4

q: Consider the compound Clc1cc(Cl)cc(Nc2nc3ccccc3c3[nH]c(C4CCCCC4)nc23)c1 and give its recorded Activity.
a: -11.4

q: Consider the compound O=C(c1ccccc1)N1CCC(c2nc3c(Nc4ccc(Cl)c(Cl)c4)nc4ccccc4c3[nH]2)CC1 and give its recorded Activity.
a: 8.8

Next:
q: Consider the compound Clc1ccc(Nc2nc3ccccc3c3[nH]c(C45CC6CC(CC4C6)C5)nc23)cc1Cl and give its recorded Activity.
a: -17.3

* * *

Overview of recorded Activity for various molecules
- target-under-test: Adenosine receptor A3 (Homo sapiens) (UniProt P0DMS8)
- Sequence (P0DMS8 whole entry): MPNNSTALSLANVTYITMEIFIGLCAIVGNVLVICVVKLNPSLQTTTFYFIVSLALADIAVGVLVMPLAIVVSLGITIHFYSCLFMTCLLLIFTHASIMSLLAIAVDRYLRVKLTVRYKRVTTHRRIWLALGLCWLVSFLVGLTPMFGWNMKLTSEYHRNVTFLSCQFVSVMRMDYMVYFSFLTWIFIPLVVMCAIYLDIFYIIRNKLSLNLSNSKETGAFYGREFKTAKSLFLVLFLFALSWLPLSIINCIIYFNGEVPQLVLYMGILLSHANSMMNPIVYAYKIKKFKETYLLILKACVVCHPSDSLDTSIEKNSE
- assay-remarks: Displacement of [125I]I-AB-MECA from human recombinant adenosine A3 receptor expressed in CHO cells at 10 uM
- Type: cell-based
Field format: number, assumed %, no unit text.

Look over these answered cases.
q: Consider the molecule FC(F)(F)c1cc(Nc2nc3ccccc3c3nc(C4CCCCC4)[nH]c23)cc(C(F)(F)F)c1 and give its recorded Activity.
a: 21.8

q: Consider the molecule N[C@H]1CC[C@@H](c2nc3c(Nc4ccc(Cl)c(Cl)c4)nc4ccccc4c3[nH]2)CC1 and give its recorded Activity.
a: 4.2

q: Consider the molecule Clc1ccc(Nc2nc3ccccc3c3[nH]c([C@H]4C[C@H]5CC[C@H]4C5)nc23)cc1Cl and give its recorded Activity.
a: 50.5

Next:
q: Consider the molecule c1ccc2c(c1)nc(Nc1ccc3c(c1)OCO3)c1nc(C3CCCCC3)[nH]c12 and give its recorded Activity.
a: 83.9

q: Consider the molecule Clc1ccc(Nc2nc3ccccc3c3[nH]c(C4CCCCC4)nc23)c(Cl)c1 and give its recorded Activity.
a: 43.9

q: Consider the molecule O=C(c1ccccc1)N1CCC(c2nc3c(Nc4ccc(Cl)c(Cl)c4)nc4ccccc4c3[nH]2)CC1 and give its recorded Activity.
a: 29.8

q: Consider the molecule COc1ccc(Nc2nc3ccccc3c3[nH]c(C4CCCCC4)nc23)cc1OC and give its recorded Activity.
a: 98.4

q: Consider the molecule Fc1cc(F)cc(Nc2nc3ccccc3c3[nH]c(C4CCCCC4)nc23)c1 and give its recorded Activity.
a: 70.1

q: Consider the molecule Clc1ccc(Nc2nc3ccccc3c3[nH]c(C45CC6CC(CC4C6)C5)nc23)cc1Cl and give its recorded Activity.
a: 3.3
